# Tested on: MS2 coat protein
# assaySummary: apparent KD of MS2 coat protein; designed switch direction (-1 OFF switch, 1 ON switch): -1; higher = weaker reporter binding
# statedConditions: input ligand: none
Collected apparent KD of MS2 coat protein values appear next to each entry.
# number only, unit nM dropped from output

Would you please look over these solved cases?
- residueString: "AUUUGGUCAGGAUAUUGUUAGUUUAGUUGUUUGUAUUAGUUCGAGAAGGGACAUGAGGAUCACCCAUGUGAUUU [Ex4 #75] (Eterna round: R97, puzzle: Exclusion 4)"
  reportedMeasurement: 100
- residueString: "AUAUUACAUGAGGAUCACCCAUGUGAGGAUAUGGAGAGCGACCGCCCGGUCGCGUACACCAGAAGGCGCAGGCG [1st #59] (Eterna round: R97, puzzle: Exclusion 1)"
  reportedMeasurement: 41.1

INPUT: What apparent KD of MS2 coat protein value was documented for this sequence, UUCACAUGGACAUGAGAUCACAUGAGGAUCACCCAUGUGAAUAACAAGCUUUUUGCUCGUCUUAUGUCCAAUAAUAA [Stov1/14-C1] (Eterna round: R97, puzzle: Sensor, turn-off variant 1) ?
OUTPUT: 12.8

INPUT: Requested read-out: apparent KD of MS2 coat protein. Entry: CCGCAGUGAGGAUAUUGUCAUAGACGGUGUGAAUCACGGGACAAGAAGGUACAUGAGGAUCACCCAUGUGGGUG [Eternabot (L1) Solution 1] (Eterna round: R97, puzzle: Exclusion 4)
OUTPUT: 1560

INPUT: # input sequence: UUAUUGUUAGAGGAUAUAUUAAGGUAUGCUUUGAUAGAAGGCUAUACAUGAGGAUCACCCAUGUUUUUUGGGAU [JR_Ex6_Sub076] (Eterna round: R97, puzzle: Exclusion 6) ; wanted: its apparent KD of MS2 coat protein
OUTPUT: 328

* * *

# Test system: MS2 coat protein
# assaySummary: apparent KD of MS2 coat protein; designed switch direction (-1 OFF switch, 1 ON switch): -1; higher = weaker reporter binding
# statedConditions: input ligand: none
assayEndpoint: apparent KD of MS2 coat protein (nM)
The reply should be a number in nM, with the unit left off.

Solved cases (5 shown):
- residueString: "UUUUUAGAUGAAGGAUAUACUUAACAUGAGGAUCACCCAUGUGGUGUUGUGAGUGAGUGAGUUUAGUAGAAGGUCAAGUAUUUU [JMF's solution 45] (Eterna round: R96, puzzle: Exclusion NG 2)"
  assayEndpoint: "apparent KD of MS2 coat protein"
  reportedMeasurement: 404
- residueString: "UUGUCGGCAGGAUAUACAUGAGGAUCACCCAUGUAAAUUUUUCGUUUAACUUGAAUGUGUAGAAGGGCCAUGUU [Ex3 #71] (Eterna round: R97, puzzle: Exclusion 3)"
  assayEndpoint: "apparent KD of MS2 coat protein"
  reportedMeasurement: 24.5
- residueString: "AGCCAAGCAGGAUAUGCCCGGGAUAACAUGAGGAUCACCCAUGUGACCGAUUGAUGUCCUGCAGAAGGGCUUGGGA [Mod of ViennaUCT - Jieux - Exclusion 5] (Eterna round: R97, puzzle: Exclusion 5)"
  assayEndpoint: "apparent KD of MS2 coat protein"
  reportedMeasurement: 17.9
- residueString: "CUGAGUAGUCAGGAUAUGCUGUACAAAAGUACAGCAGAAGGGACUACAUGAGGAUCACCCAUGUUUACUUCAUG [)mei Ex6 B22] (Eterna round: R97, puzzle: Exclusion 6)"
  assayEndpoint: "apparent KD of MS2 coat protein"
  reportedMeasurement: 821
- residueString: "ACACAGCGAGGAUAUACAUGAGGAUCACCCAUGUGGCGGCCGUUACGGUAGGACUAGUGUAGAAGGCGCAUUGG [EX3 #34] (Eterna round: R97, puzzle: Exclusion 3)"
  assayEndpoint: "apparent KD of MS2 coat protein"
  reportedMeasurement: 247

INPUT: Given the entry GACCUAUAGGUAGGAUAUCAUUGCGAUUAGCUAUGAGAAGGACCACAUGAGGAUCACCCAUGUCCUCCAAUUAACCAUAAGGUC [Fiskers ExNg1 - 5] (Eterna round: R96, puzzle: Exclusion NG 1) , report its measured apparent KD of MS2 coat protein.
OUTPUT: 40.9

INPUT: Looking for the measured apparent KD of MS2 coat protein of GCUAGUCAUGUCAGGAUAUGCAGAACCUUGGUUCUGCAGAAGGGACAUGAGGAUCACCCAUGUGCCUAACUAGC [Mat - Exclusion 4 - JL Mod - D15] (Eterna round: R97, puzzle: Brourd's mod of Exclusion 4) , can you help?
OUTPUT: 40.3

INPUT: Form field: reported apparent KD of MS2 coat protein of GGUAAGCUAGGAUAUGCUUUGGGAAAGCAUUCCUUCGAUAAACUUGAGGAUCACCCAAGUAGAAGGAGCUUCCC [salish99_ex2_r4_017] (Eterna round: R97, puzzle: Exclusion 2)
OUTPUT: 11

INPUT: # query: apparent KD of MS2 coat protein of entry AUAUUACAUGAGGAUCACCCAUGUGAGGAUAUGGAGCGAGACUGUCCUGUCGCGUACACCAGAAGGCGCGGGUG [1st #52] (Eterna round: R97, puzzle: Exclusion 1)
OUTPUT: 118

INPUT: For the sequence AGCGAAUGAGGAUAUUAUCUCACCUACAUGAGGAUCACCCAUGUGGUCGCACCUGGCGAGUGAGAAGGCAUUCGGA [Eternabot (Original) Solution 41] (Eterna round: R97, puzzle: Exclusion 5) , what apparent KD of MS2 coat protein is on record?
OUTPUT: 49.8

* * *

# Test system: K4 kissing-loop RNA reporter;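 note: bound reporter read as fluorescence of individual clusters on recovered sequencing chips by microscopy, with normalized cluster intensities fitted with a binding model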
# assaySummary: apparent KD of K4 kissing-loop reporter; higher = weaker reporter binding
# statedConditions: Eterna round: R107; input ligand: none
Label true (1) when apparent KD of K4 kissing-loop reporter is at or above 200 nM; anything below gets false (0).

Recorded results for 4 sequences are shown here.
- residueString: "GGUAGCAUGGCGGCCGCCACUAUAAAGAAUCCAAAGGAUUCUAGGUAGUGAUGUUACCAUAGCUAUAGGACCGGGCCAUGCUACC"
  categoryLabel: "false (0)"
- residueString: "CUCGUGGGUUUGAGAGGGCUUGUGGGAAGAUAGGAUAUCUAGGGAGGGAGAAGGAUCUAUAGAAUAUAGUGAUGUUAUAUAUGGG [#05 K4 FMN A Same State]"
  categoryLabel: "false (0)"
- residueString: "UGUCAUUGGUCGGCCGCCACUUCGGUCAAAGACCAUAAAGAGUGAUGUUCUUAAGACGAAAGUCGAAGGACCGGGACCGAUGACU [TrypBS 11 #SwitchBubble #K4Middle]"
  categoryLabel: "true (1)"
- residueString: "CCCUCACGAGUGAUGUUCGUAGGGUACAGUCAGGAUAUCAUGCGGUUGAGAAGGGACAGAGAAGGCGGCCACGGGUUGCUUAUCU [Ussoat]"
  categoryLabel: "true (1)"

Turning now to a further record.
INPUT: Test whether the sequence UUUAACGAGUGAUGUUCGAAGAGUAAUGGUGAGGAUAUCGAUUUUUCGAGAAGGCGCCUCGAAGUGAUACGAAAGUAUCGCUUCG [FMN A 6] records apparent KD of K4 kissing-loop reporter of 200 nM or higher.
OUTPUT: true (1)

* * *

# Tested on: MS2 coat protein
# assaySummary: apparent KD of MS2 coat protein; designed switch direction (-1 OFF switch, 1 ON switch): -1; higher = weaker reporter binding
# statedConditions: input ligand: microRNA oligo, concentration not stated
List of apparent KD of MS2 coat protein values.

// solved cases for apparent KD of MS2 coat protein follow
- residueString: "CAAUUCCGAGGAUAUACAUGAGGAUCACCCAUGUCGGGCCUCAGCGUUUAGCGCCUAAGUAGAAGGUGGGUUUC [JL Riri mod 4] (Eterna round: R96, puzzle: Exclusion 3)"
  testedTarget: "MS2 coat protein"
  assayEndpoint: "apparent KD of MS2 coat protein"
  reportedMeasurement: "0.0317 µM"
- residueString: "AGUACUAUCACGAAAGUGAUAGUACAAUGAGCUUUUGAAACAUGAGGAUCACCCAUGUCCUCAUAAGCUCGUCUUAU [JL turnoff v2 52] (Eterna round: R96, puzzle: Sensor v2, turn-off variant 2)"
  testedTarget: "MS2 coat protein"
  assayEndpoint: "apparent KD of MS2 coat protein"
  reportedMeasurement: "0.123 µM"
- residueString: "CCAGUGUGCUUCAGGACAUGAGGAUCACCCAUGUUCGCAAAAUAGGAUAUUGGGUGUAGGCCGCGCAAGAAGGGUUAUGCGAAC [Disobeus] (Eterna round: R96, puzzle: Exclusion NG 3)"
  testedTarget: "MS2 coat protein"
  assayEndpoint: "apparent KD of MS2 coat protein"
  reportedMeasurement: "0.0798 µM"
- residueString: "GCUCGUGGGCAAGGAUAUCCUACGCUGUUCUGGUUCGUGUCUGUUACAUGAGGAUCACCCAUGUGGGAGAAGGUGCACCAGGGU [Design 50] (Eterna round: R96, puzzle: Exclusion NG 2)"
  testedTarget: "MS2 coat protein"
  assayEndpoint: "apparent KD of MS2 coat protein"
  reportedMeasurement: "0.0123 µM"

INPUT: Quick one: apparent KD of MS2 coat protein for UUAUUGUGAGGAUAUCAGGUGUGCUAGCGUACUGGUACAUCUGAGAAGGCACAUGAGGAUCACCCAUGUUUCUU [JL-ex4-3.22 Brourd mod] (Eterna round: R96, puzzle: Exclusion 4) ?
OUTPUT: 0.0189 µM

INPUT: What value of measured apparent KD of MS2 coat protein is listed for GUACUGAAGCUUUGCUUUAGUCGUACAUGAGGAUCACCCAUGUAGGAUAUGGUAAGCAUAGCUUACUAGAAGGAUAGAGUGAUC [Mat - Exclusion NG 3 - Mod of JL - D65] (Eterna round: R96, puzzle: Exclusion NG 3) ?
OUTPUT: 0.0566 µM

// provenance: the supplement of paper PMC9170038
